- experimentDescription: physchem
- conditionLabel: buffer, pH 7.4
readoutType: logD

Worked cases, logD given:
* O=c1[nH]c(Oc2cn[nH]c2)nc2cnccc12 | -0.6
* O=c1[nH]c(Oc2cnn(C3CCCCC3)c2)nc2cnccc12 | 2.2
* O=c1[nH]c(Oc2ccccc2)nc2cnccc12 | 1.2
* Cn1cc(Oc2nc3cnccc3c(=O)[nH]2)cn1 | -0.3
* O=c1[nH]c(OCC2CCCCC2)nc2cnccc12 | 4.5

*Q* Value lookup for logD; key = O=c1[nH]c(Oc2cnn(Cc3ccccc3)c2)nc2cnccc12
*A* 1.8

*Q* Value lookup for logD; key = Cc1c(Oc2nc3cnccc3c(=O)[nH]2)cnn1C
*A* -0.2

*Q* Value lookup for logD; key = O=c1[nH]c(Oc2cnn(C3CCCCCC3)c2)nc2cnccc12
*A* 2.9

----------
- assayTarget: Lysine-specific demethylase 4C (Homo sapiens, UniProt Q9H3R0)
- Sequence (Q9H3R0 whole entry): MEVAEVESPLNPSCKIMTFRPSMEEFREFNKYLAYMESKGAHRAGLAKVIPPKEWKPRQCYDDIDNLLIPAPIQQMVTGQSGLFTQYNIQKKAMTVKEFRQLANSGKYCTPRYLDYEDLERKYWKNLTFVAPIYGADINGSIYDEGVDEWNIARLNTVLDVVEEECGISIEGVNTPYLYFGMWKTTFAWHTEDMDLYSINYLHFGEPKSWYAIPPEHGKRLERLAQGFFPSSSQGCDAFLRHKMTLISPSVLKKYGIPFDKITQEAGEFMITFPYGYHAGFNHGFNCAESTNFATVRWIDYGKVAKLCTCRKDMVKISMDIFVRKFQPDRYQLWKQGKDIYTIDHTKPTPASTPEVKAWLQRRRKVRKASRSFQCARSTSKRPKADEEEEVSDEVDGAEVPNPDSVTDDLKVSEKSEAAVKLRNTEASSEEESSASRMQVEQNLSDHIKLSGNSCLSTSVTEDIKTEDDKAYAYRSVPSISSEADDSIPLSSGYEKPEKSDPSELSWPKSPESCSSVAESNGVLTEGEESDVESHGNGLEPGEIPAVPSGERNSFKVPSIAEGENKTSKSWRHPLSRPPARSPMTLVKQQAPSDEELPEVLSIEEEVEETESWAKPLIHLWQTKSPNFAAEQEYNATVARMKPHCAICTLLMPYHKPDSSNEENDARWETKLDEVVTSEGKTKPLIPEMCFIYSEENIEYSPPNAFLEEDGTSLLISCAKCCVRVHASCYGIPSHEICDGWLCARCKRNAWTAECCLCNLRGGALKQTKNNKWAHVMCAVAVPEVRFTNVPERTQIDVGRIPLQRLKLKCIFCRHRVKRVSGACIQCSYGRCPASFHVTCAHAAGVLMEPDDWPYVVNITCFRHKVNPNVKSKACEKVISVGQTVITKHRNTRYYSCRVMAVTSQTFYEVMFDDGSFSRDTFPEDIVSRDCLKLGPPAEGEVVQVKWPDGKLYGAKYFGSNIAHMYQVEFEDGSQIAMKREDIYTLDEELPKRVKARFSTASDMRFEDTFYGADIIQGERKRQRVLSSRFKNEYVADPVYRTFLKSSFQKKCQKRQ
- experimentDescription: Inhibition of N-terminal his-tagged full-length human KDM4C transfected in U2OS cells assessed as inhibition of H3K9Me3 demethylation for 24 hrs
- Type: cell-based
readoutType: pIC50
// pIC50 is dimensionless: -log10 of concentration (M)

* Cn1cc(Oc2nc3cnccc3c(=O)[nH]2)cn1 | 5.10

*Q* Can you look up pIC50 on Lysine-specific demethylase 4C (Homo sapiens, UniProt Q9H3R0) for O=c1[nH]c(Oc2cccc(O)c2)nc2cnccc12 ?
*A* 5.00

*Q* Can you look up pIC50 on Lysine-specific demethylase 4C (Homo sapiens, UniProt Q9H3R0) for O=c1[nH]c(Oc2cccnc2)nc2cnccc12 ?
*A* 4.90

*Q* Can you look up pIC50 on Lysine-specific demethylase 4C (Homo sapiens, UniProt Q9H3R0) for O=c1[nH]c(Oc2ccc(Cl)cc2)nc2cnccc12 ?
*A* 5.00
